Provide the recorded inhibition for the entries that follow.
# target.of.assay: Tyrosine-protein phosphatase non-receptor type 22 (Homo sapiens)
# test: LYP phosphatase inhibitors, primary screen, biochemical, DiFMUP fluorescence, recombinant catalytic domain, 10 µM (AID 606)
# test.conditions: at 10 µM, hits give high values
Among all 52,000 compounds or so, fewer than 10 were called active. The list is a sample of the results.
Express the result in % but write the number alone.

Asked: Please report the measured inhibition for COc1ccccc1OCCC(=O)OCCN1C(=O)c2ccccc2C1=O tested on Tyrosine-protein phosphatase non-receptor type 22 (Homo sapiens).
Given back: -6.96

Asked: Please report the measured inhibition for COC(=O)CSc1nc2c(c(=O)n(C)c(=O)n2C)n1CCCc1ccccc1 tested on Tyrosine-protein phosphatase non-receptor type 22 (Homo sapiens).
Given back: 4.4

Asked: Under Tyrosine-protein phosphatase non-receptor type 22 (Homo sapiens): report inhibition of COc1ccccc1-n1c(CNc2c(C)cccc2C)nnc1SCC(=O)N1CCOCC1 .
Given back: 19.1

Asked: Send back Tyrosine-protein phosphatase non-receptor type 22 (Homo sapiens) inhibition of CC(=O)Nc1ccc(C(=O)OCCC(C)C)cc1 only.
Given back: -3.58

Asked: State the measured inhibition (Tyrosine-protein phosphatase non-receptor type 22 (Homo sapiens)) of COc1cccc(NC(=O)CN(c2cccc(F)c2)S(C)(=O)=O)c1
Given back: -7.34

Asked: Give inhibition; test system Tyrosine-protein phosphatase non-receptor type 22 (Homo sapiens); molecule Cc1ccnc(NC(=O)Nc2cccc(F)c2)c1
Given back: -13.1

---

# target.of.assay: Tyrosine-protein phosphatase non-receptor type 22 (Homo sapiens)
# test: LYP phosphatase inhibitors, primary screen, biochemical, DiFMUP fluorescence, recombinant catalytic domain, 10 µM (AID 606)
# test.conditions: at 10 µM, hits give high values
Hit rate of the full screen: of about 52,000 compounds, fewer than 10 were called active. These entries were drawn from the full list.
measurement.name: inhibition

Asked: Answer with the recorded inhibition of CC(C)(C)NC(=O)C(OC(=O)Cn1nnc(-c2ccc(F)cc2)n1)c1ccncc1 (stereo not drawn) only.
Given back: 1.61% (inactive)

Asked: Please look at this compound and report its inhibition: COc1nc(C)nc2c1sc(=S)n2C
Given back: -1.82% (inactive)

Asked: Please give the documented inhibition of CCN1C(=Nc2ccc(Cl)cc2)SC/C1=C\C(=O)OC
Given back: 6.44% (inactive)
